assay: in vivo; settings: male, 1 mg/kg, tmax
Outcome Measure: Tmax (min)
Numbers only here, please. The scale is min.

Query: Give its Tmax value. Item: CCCCCC(=O)c1c(O)nc(OC)c(OC)c1O [Compound 16c]
Result: 30

###

test: in vivo; conditions: 1 mg/kg, tmax
Outcome Measure: Tmax (min)
Numbers only here, please. The scale is min.

Query: Give its Tmax value. Item: CCCCCC(=O)c1c(O)nc(OC)c(OC)c1O [Compound 16c]
Result: 22.8

###

test: in vivo; details: 1 mg/kg
Outcome Measure: AUC (ng·h/mL)
Numbers only here, please. The scale is ng·h/mL.

Query: Give its AUC value. Item: CCCCCC(=O)c1c(O)nc(OC)c(OC)c1O [Compound 16c]
Result: 19.6

###

biological target: Complex I (NADH ubiquinone-oxidoreductase) (Mus musculus, UniProt P03888+Q91WD5+Q9DC70); assay: Complex I inhibition assay, mouse cardiac mitochondria
Outcome Measure: IC50

Query: Give its IC50 value. Item: CCCCCCCCCCCCC(=O)c1c(O)nc(OC)c(OC)c1O [Compound 16k]
Result: > 10 µM

###

test: in vivo; conditions: male, 1 mg/kg, Cmax
Outcome Measure: Cmax (ng/mL)
Numbers only here, please. The scale is ng/mL.

Query: Give its Cmax value. Item: CCCCCC(=O)c1c(O)nc(OC)c(OC)c1O [Compound 16c]
Result: 23.9

###

assay: in vivo; conditions: female, 1 mg/kg, AUCinf,obs
Outcome Measure: AUC(0-inf) (ng·h/mL)
Numbers only here, please. The scale is ng·h/mL.

Query: Give its AUC(0-inf) value. Item: CCCCCC(=O)c1c(O)nc(OC)c(OC)c1O [Compound 16c]
Result: 36

###

assay: in vivo; settings: female, 1 mg/kg, Cmax
Outcome Measure: Cmax (ng/mL)
Numbers only here, please. The scale is ng/mL.

Query: Give its Cmax value. Item: CCCCCC(=O)c1c(O)nc(OC)c(OC)c1O [Compound 16c]
Result: 140

###

target: mitochondrial complex II (CII) (Rattus norvegicus, UniProt P21913+Q641Z9+Q6PCT8); experiment: Complex II inhibition assay, isolated rat heart mitochondria; conditions: LLE = pIC50-ClogP
Sequence (P21913 31-282): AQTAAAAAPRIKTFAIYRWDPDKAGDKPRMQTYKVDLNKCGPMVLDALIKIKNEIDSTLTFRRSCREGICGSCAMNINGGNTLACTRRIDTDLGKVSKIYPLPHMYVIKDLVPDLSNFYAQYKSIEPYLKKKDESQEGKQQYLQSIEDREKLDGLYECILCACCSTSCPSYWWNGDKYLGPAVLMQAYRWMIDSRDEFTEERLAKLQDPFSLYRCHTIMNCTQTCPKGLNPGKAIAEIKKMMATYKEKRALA
Sequence (Q641Z9 30-169 limits assumed): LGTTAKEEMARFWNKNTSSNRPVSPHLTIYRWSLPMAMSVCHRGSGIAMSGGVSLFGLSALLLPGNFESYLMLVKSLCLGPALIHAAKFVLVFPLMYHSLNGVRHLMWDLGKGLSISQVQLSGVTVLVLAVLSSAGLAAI
Sequence (Q6PCT8 57-159): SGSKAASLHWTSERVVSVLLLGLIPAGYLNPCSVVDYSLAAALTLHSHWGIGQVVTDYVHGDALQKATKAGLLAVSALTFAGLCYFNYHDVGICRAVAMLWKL
Sequence (Q920L2 35-656 partner): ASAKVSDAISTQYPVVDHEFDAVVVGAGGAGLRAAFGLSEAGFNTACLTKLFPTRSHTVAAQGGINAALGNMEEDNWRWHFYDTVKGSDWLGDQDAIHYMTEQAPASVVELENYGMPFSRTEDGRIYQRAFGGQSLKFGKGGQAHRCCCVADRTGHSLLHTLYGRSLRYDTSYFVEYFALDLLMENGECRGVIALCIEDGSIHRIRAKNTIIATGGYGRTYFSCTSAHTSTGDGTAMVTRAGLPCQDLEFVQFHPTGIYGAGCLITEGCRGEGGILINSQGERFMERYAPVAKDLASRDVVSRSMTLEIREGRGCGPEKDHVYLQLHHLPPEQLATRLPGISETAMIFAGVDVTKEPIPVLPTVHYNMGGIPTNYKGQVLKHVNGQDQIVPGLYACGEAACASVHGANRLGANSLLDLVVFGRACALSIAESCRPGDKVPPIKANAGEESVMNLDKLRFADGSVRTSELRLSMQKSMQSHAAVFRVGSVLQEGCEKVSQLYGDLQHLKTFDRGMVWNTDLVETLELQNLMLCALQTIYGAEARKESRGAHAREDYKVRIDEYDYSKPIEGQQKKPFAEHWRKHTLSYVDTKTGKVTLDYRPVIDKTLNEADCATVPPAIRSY
LLE (Ligand-Lipophilicity Efficiency) reference

The examples below pair each entry with its known result.
Query: Give its LLE (Ligand-Lipophilicity Efficiency) value. Item: CCCCCCCCCCC(=O)c1c(O)nc(OC)c(OC)c1O [Compound 16j]
Result: 4.32

Query: Proceed to CCCCCCCCCCCCC(=O)c1c(O)nc(OC)c(OC)c1O [Compound 16k]
Result: 3.76

Query: Proceed to CCCCCCCCC(=O)c1c(O)nc(OC)c(OC)c1O [Compound 16h]
Result: 4.93

Query: Proceed to COc1nc(O)c(C(=O)CCCCOCc2ccccc2)c(O)c1OC [Compound 16d]
Result: 3.41

Next:
Query: Give its LLE (Ligand-Lipophilicity Efficiency) value. Item: CCCCCCC(=O)c1c(O)nc(OC)c(OC)c1O [Compound 16f]
Result: 4.57

###

target: mitochondrial complex II (CII) (Rattus norvegicus, UniProt P21913+Q641Z9+Q6PCT8); test: Complex II inhibition assay, isolated rat heart mitochondria; settings: LLE = pIC50-ClogP
Kind request: treat 5 as inclusive, so LLE (Ligand-Lipophilicity Efficiency) at 5 or higher is t, anything lower is f.

Illustrative cases are given below, each with its answer.
Query: // inclusive: LLE (Ligand-Lipophilicity Efficiency) at least 5? input: CCCCC(=O)c1c(O)nc(OC)c(OC)c1O [Compound 16b]
Result: t

Query: Proceed to COc1[nH]c(=O)c(C(=O)[C@@H](C)C[C@H](C)[C@@H](Cl)CCl)c(O)c1OC
Result: t

Query: Proceed to CC1=NS(=O)(=O)c2cc(Cl)ccc2N1 [Diazoxide, diazoxide, reference compound]
Result: f

Turning now to a further compound:
Query: // inclusive: LLE (Ligand-Lipophilicity Efficiency) at least 5? input: COc1nc(O)c(C(=O)CCCCO)c(O)c1OC [Compound 16e]
Result: t

###

IC50 reference
target: Complex I (NADH ubiquinone-oxidoreductase) (Mus musculus, UniProt P03888+Q91WD5+Q9DC70); assay: Complex I inhibition assay, mouse cardiac mitochondria; conditions: read-out: Complex I IC50

Query: Give its IC50 value. Item: COc1[nH]c(=O)c(C(=O)[C@@H](C)C[C@H](C)[C@@H](Cl)CCl)c(O)c1OC
Result: > 10 µM

Let us examine a further case.
Query: Give its IC50 value. Item: CCCCCCCCCCCCC(=O)c1c(O)nc(OC)c(OC)c1O [Compound 16k]
Result: > 10 µM

###

molecular target: mitochondrial complex II (CII) (Rattus norvegicus, UniProt P21913+Q641Z9+Q6PCT8); test: Complex II inhibition assay, isolated rat heart mitochondria; details: read-out: CII IC50; rat heart mitochondria; mean value of four experiments
pIC50: −log10 of the molar value.
Kind request: treat 7 as inclusive, so pIC50 at 7 or higher is satisfied, anything lower is not satisfied.

Illustrative cases are given below, each with its answer.
Query: // inclusive: pIC50 at least 7? input: CCCCCCCCC(=O)c1c(O)nc(OC)c(OC)c1O [Compound 16h]
Result: satisfied

Query: Proceed to CCCCCCCC(=O)c1c(O)nc(OC)c(OC)c1O [Compound 16g]
Result: satisfied

Query: Proceed to COc1nc(O)c(C(=O)CCCCO)c(O)c1OC [Compound 16e]
Result: not satisfied

Next:
Query: // inclusive: pIC50 at least 7? input: CCCCC(=O)c1c(O)nc(OC)c(OC)c1O [Compound 16b]
Result: not satisfied

Query: Proceed to COc1[nH]c(=O)c(C(=O)[C@@H](C)C[C@H](C)[C@@H](Cl)CCl)c(O)c1OC [Atpenin A5, atpenin A5]
Result: satisfied

Query: Proceed to COc1nc(O)c(C(=O)CCCCOCc2ccccc2)c(O)c1OC [Compound 16d]
Result: not satisfied

Query: Proceed to CCCCCCC(=O)c1c(O)nc(OC)c(OC)c1O [Compound 16f]
Result: not satisfied

###

target: mitochondrial complex II (CII) (Rattus norvegicus, UniProt P21913+Q641Z9+Q6PCT8); assay: Complex II inhibition assay, isolated rat heart mitochondria; details: read-out: CII IC50; rat heart CII
Outcome Measure: IC50 (nM)
Numbers only here, please. The scale is nM.

The examples below pair each entry with its known result.
Query: Give its IC50 value. Item: COc1[nH]c(=O)c(C(=O)[C@@H](C)C[C@H](C)[C@@H](Cl)CCl)c(O)c1OC
Result: 3.3

Query: Proceed to CCCCC(=O)c1c(O)nc(OC)c(OC)c1O [Compound 16b]
Result: 345

Next:
Query: Give its IC50 value. Item: CCCCCCCCCCC(=O)c1c(O)nc(OC)c(OC)c1O [Compound 16j]
Result: 8.6

###

assay: in vivo; settings: male, 1 mg/kg, AUCinf,pred
Outcome Measure: AUC(0-inf)
Give me the value, and tack the unit on after it.

Query: Give its AUC(0-inf) value. Item: CCCCCC(=O)c1c(O)nc(OC)c(OC)c1O [Compound 16c]
Result: 10.6 ng·h/mL

###

assay: in vivo; details: 1 mg/kg
Outcome Measure: Vd
Give me the value, and tack the unit on after it.

Query: Give its Vd value. Item: CCCCCC(=O)c1c(O)nc(OC)c(OC)c1O [Compound 16c]
Result: 89.5 L/kg

###

assay: in vivo; settings: 1 mg/kg
Outcome Measure: half-life (h)
Numbers only here, please. The scale is h.

Query: Give its half-life value. Item: CCCCCC(=O)c1c(O)nc(OC)c(OC)c1O [Compound 16c]
Result: 1.71

###

molecular target: mitochondrial complex II (CII) (Rattus norvegicus, UniProt P21913+Q641Z9+Q6PCT8); experiment: Complex II inhibition assay, isolated rat heart mitochondria; settings: read-out: Complex II IC50; Table 3
Outcome Measure: pIC50
Just the number, please; pIC50 means minus log10 of the concentration in mol/L.

Query: Give its pIC50 value. Item: COc1[nH]c(=O)c(C(=O)[C@@H](C)C[C@H](C)[C@@H](Cl)CCl)c(O)c1OC [Atpenin A5, atpenin A5]
Result: 8.48
